Would you mind telling me the reported pIC50 of each entry?
pIC50: −log10 of the molar value.

Prompt: Provide the reported pIC50 (system: UniProtKB P00533) for C=CC(=O)Nc1cccc(N2C(=O)N(C)Cc3cnc(Nc4ccccc4)nc32)c1
Sequence (P00533 25-1210): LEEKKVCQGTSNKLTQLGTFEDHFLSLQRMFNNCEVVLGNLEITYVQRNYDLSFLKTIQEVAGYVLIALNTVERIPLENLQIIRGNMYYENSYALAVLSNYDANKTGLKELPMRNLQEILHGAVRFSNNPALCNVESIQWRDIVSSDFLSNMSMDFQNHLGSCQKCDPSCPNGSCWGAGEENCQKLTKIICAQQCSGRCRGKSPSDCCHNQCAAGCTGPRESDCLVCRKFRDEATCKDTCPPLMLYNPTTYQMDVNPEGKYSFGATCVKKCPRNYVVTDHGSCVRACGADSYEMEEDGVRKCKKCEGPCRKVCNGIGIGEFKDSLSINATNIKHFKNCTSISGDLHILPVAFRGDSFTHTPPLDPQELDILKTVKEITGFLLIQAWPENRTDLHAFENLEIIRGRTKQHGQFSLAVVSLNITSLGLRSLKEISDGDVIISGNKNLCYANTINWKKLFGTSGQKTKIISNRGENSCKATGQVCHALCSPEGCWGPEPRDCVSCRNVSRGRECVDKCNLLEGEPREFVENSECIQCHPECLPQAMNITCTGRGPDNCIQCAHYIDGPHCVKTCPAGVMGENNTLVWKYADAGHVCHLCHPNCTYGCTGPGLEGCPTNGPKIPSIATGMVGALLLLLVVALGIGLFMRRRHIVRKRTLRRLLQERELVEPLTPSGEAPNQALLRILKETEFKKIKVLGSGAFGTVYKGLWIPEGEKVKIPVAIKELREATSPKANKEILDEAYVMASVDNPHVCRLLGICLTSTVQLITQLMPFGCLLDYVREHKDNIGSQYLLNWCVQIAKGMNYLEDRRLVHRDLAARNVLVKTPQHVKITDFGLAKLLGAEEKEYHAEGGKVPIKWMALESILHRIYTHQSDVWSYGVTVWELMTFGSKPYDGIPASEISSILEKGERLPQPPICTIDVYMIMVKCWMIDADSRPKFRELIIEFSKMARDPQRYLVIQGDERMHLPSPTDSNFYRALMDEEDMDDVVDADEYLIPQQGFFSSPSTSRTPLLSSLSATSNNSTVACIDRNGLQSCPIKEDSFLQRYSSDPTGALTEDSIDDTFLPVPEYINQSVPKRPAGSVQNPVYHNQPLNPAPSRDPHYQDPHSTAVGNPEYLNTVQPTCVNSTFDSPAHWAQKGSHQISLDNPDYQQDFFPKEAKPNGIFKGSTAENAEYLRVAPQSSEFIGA
Completion: ≥ 8.00

Prompt: Provide the reported pIC50 (system: UniProtKB P00533) for C=CC(=O)Nc1cccc(N2C(=O)N(C)Cc3cnc(Nc4ccc(N5CCC(N(C)C)CC5)cc4)nc32)c1
Completion: ≥ 8.00

Prompt: Provide the reported pIC50 (system: UniProtKB P00533) for C=CC(=O)Nc1cccc(N2C(=O)N(C)Cc3cnc(Nc4ccc(N5CC[C@H](N(C)C)C5)cc4OC)nc32)c1
Completion: ≥ 8.00

Prompt: Provide the reported pIC50 (system: UniProtKB P00533) for C=CC(=O)Nc1cccc(N2C(=O)N(c3ccc(OC)cc3)Cc3cnc(Nc4ccc(N5CCN(C)CC5)cc4OC)nc32)c1
Completion: ≥ 8.00

Prompt: Provide the reported pIC50 (system: UniProtKB P00533) for C=CC(=O)Nc1cccc(N2C(=O)N(C)Cc3cnc(Nc4ccc(N5CCSCC5)cc4OC)nc32)c1
Completion: 7.00 to 8.00

Prompt: Provide the reported pIC50 (system: UniProtKB P00533) for C=CC(=O)Nc1cccc(N2C(=O)N(C)Cc3cnc(Nc4ccc(N5CCN(C(C)=O)CC5)cc4OC)nc32)c1
Completion: ≥ 8.00
